Assay: The drug is tested on Z-017 corresponding to mouse gut metagenome with ENA study accession number: PRJEB37062 and ENA sample accession number: ERS12561816 for biotransformation under anaerobic condition. The drug concentrations were measured over 9 timepoints collected between 0 and 24 hours of incubation by liquid-chromatography-coupled mass spectrometry (LC–MS); further: call rule not given here
Conditions: 2 µM
endpoint name: Bacterial Biotransformation

The following compounds have reported results that may help.
| compound | Bacterial Biotransformation |
| --- | --- |
| CC(=O)CCCCn1c(=O)c2c(ncn2C)n(C)c1=O | Compound NOT metabolized |
| CC(=O)OCC(=O)NCCCOc1cccc(CN2CCCCC2)c1 [ROXATIDINE ACETATE] | Compound metabolized |
| O=C(CCCN1CCC2(CC1)C(=O)NCN2c1ccccc1)c1ccc(F)cc1 | Compound NOT metabolized |
| COc1ccccc1OCCNCC(O)COc1cccc2[nH]c3ccccc3c12 (stereo not drawn) | Compound NOT metabolized |
| CN(C)CCOC(C)(c1ccccc1)c1ccccn1.O=C(O)CCC(=O)O (stereo not drawn) [DOXYLAMINE SUCCINATE] | Compound NOT metabolized |
| CCc1oc2ccccc2c1C(=O)c1cc(Br)c(O)c(Br)c1 | Compound NOT metabolized |
| COc1ccc([C@@H]2Sc3ccccc3N(CCN(C)C)C(=O)[C@@H]2OC(C)=O)cc1 | Compound NOT metabolized |
| COc1ccc(C(CN(C)C)C2(O)CCCCC2)cc1 (stereo not drawn) | Compound NOT metabolized |

Recorded Bacterial Biotransformation for Cc1cc2c(s1)Nc1ccccc1N=C2N1CCN(C)CC1 , please?
Compound NOT metabolized

Then O=C1CCc2ccc(OCCCCN3CCN(c4cccc(Cl)c4Cl)CC3)cc2N1 ?
Compound metabolized

Data credit: ChEMBL document CHEMBL5724914
